Test system: MDA-MB-435
Test: NCI tumour cell line growth inhibition, 48 h
Activity calls are given as the source filed them. Cut-off read from the data, not from the text of the source: active = GI50 up to about 1.1 µM and inactive = higher.
Your answer must be one of the following: active, inactive

# example entries with known answers
- Molecule: "CCCCc1ccc(-n2sc3ncc(-c4ccccc4)cc3c2=O)cc1"
  Label: "inactive"
- Molecule: "O=C1CSC(c2cccc([N+](=O)[O-])c2)N1c1ccc(-n2c(-c3ccccc3)nc3ccccc3c2=O)cc1 (stereo unspecified)"
  Label: "inactive"

Hi team, can someone confirm the assay call for "CC(C)(CN)SCc1ccccc1" ? inactive

Lookup CC(=O)C1C(=O)C(=O)N(c2cccc([N+](=O)[O-])c2)C1=O (stereo unspecified) inactive

Next entry: "Cc1nc2ccc(S(=O)(=O)Nc3ccccn3)cc2c(=O)n1NS(=O)(=O)c1ccccn1" inactive

How about this molecule: "C/C(=C/CNc1ncnc2c1ncn2CCC#N)CO" inactive

Also COc1cc2c(cc1OC)C(SC)C(=O)N(Cc1cccc(OC)c1OC)CC2 (stereo unspecified) ? active

----------
Test system: SNB-19
Test: NCI tumour cell line growth inhibition, 48 h
Calls of active or inactive are those of the source. No stated cut-off is given here; in the data, active = GI50 up to about 1.1 µM and inactive = higher.
Recorded GI50 by entry

- Compound: "COc1ccc(C(=O)CC(=O)C(=O)Nc2ccc(C)c(C)c2)cc1"
  GI50: "> 100 µM (inactive)"
- Compound: "O=c1[nH]c(=O)n(CCOCP(=O)(O)O)nc1Br"
  GI50: "> 100 µM (inactive)"
- Compound: "c1nc(OCC2CCCCC2)c2nc[nH]c2n1"
  GI50: "> 100 µM (inactive)"
- Compound: "COc1ccc(-c2cc(-c3ccccc3)n(C3OCC(OC(C)=O)C(OC(C)=O)C3OC(C)=O)c(=S)c2C#N)cc1 (stereo unspecified)"
  GI50: "> 100 µM (inactive)"
- Compound: "COC(=O)C(O)P(=O)(OC)OC (stereo unspecified)"
  GI50: "> 100 µM (inactive)"
- Compound: "O=[N+]([O-])c1ccc2nc(-c3ccccn3)c(-c3ccccn3)nc2c1"
  GI50: "> 100 µM (inactive)"

Now for a further compound.
Notebook: pull reported GI50 for SNB-19, entry "COc1cc(/C=C/C(=O)c2cccc3ccccc23)cc(OC)c1OC" 13.4 µM (inactive)

----------
Tested on: M14
Test: NCI tumour cell line growth inhibition, 48 h
The source made the active and inactive calls. Rule as the data show it: active = GI50 up to about 1.1 µM and inactive = higher. Where a SMILES comes first, the peptide text is derived from it. [ ]: non-standard residue; d: D form. The star is where a group is joined. Phe(4-NO2) = N[CH](Cc1ccc([N+](=O)[O-])cc1)C(=O)O; Boc = CC(C)(C)OC(=O)*; OtBu = CC(C)(C)O*
Result category, one only: active, inactive

Consider the worked cases shown below.
- Compound: "CC(C#N)(NO)C(C)(C#N)NO (stereo not given)"
  Tested On: "M14"
  Label: "inactive"
- Compound: "CC(C)=CCC[C@@H](C)C1=CC(=O)C(C)=C(O)C1=O"
  Tested On: "M14"
  Label: "inactive"
- Compound: "COC1/C=C/C(C)C(C(C)C(OC)C(C)CCC(=O)C(C)C(CC(=O)O)OC)OC(=O)/C=C/C=C(\\C)CC(OC)C(OC)C2=CC(=O)O[C@@H](C(C)C(OC)CC(OC)/C=C/C(C)C(O)C1)[C@H]2O (stereo not given in full)"
  Tested On: "M14"
  Label: "active"
- Compound: "COC1(OC)C2(Cl)C3=CCCC=C3C1(Cl)C(Cl)=C2Cl"
  Tested On: "M14"
  Label: "inactive"

Status in this test for O=C1CSC(c2cccc([N+](=O)[O-])c2)N1c1ccc(-n2c(-c3ccccc3)nc3ccccc3c2=O)cc1 (stereo not given) ? inactive

And the next one, "Cc1nc(=O)[nH]c2s/c(=N/C3CCCCC3)n(C3CCCCC3)c(=O)c12" ? inactive

Input "NCCNCCNc1ccc(NCCNCCN)c2c1C(=O)c1c(O)ccc(O)c1C2=O" inactive

Now give it for "C/N=c1\ss/c(=N\C(=S)N(C)C)n1C1CCCCC1" too. inactive

Moving on to COC(=O)C(Cc1ccc([N+](=O)[O-])cc1)NC(=O)C(CC(=O)OC(C)(C)C)NC(=O)OC(C)(C)C (stereo not given) (Boc-Asp(OtBu)-[Phe(4-NO2)]-OMe; configuration not given here) inactive

What do we get for "Cc1ccc(C(=O)N/N=C(\N=N\c2ccccc2)c2ccc(N(C)C)cc2)cc1" ? inactive

Same for CCOC(=O)C(NC(=O)CC)(C(F)(F)F)P(=O)(OCC)OCC (stereo not given) inactive

What do you get for "CCSc1nc2cccc([N+](=O)[O-])c2n1CC" ? inactive

Now the same for "C[Si](C)(C)C#C[I+]c1ccccc1" inactive

Check "Cn1/c(=N\S(=O)(=O)c2ccccc2)[nH]c2ccccc21" too. inactive

# repeat for N#CC1C(C#N)C2(c3ccccc3)C(c3ccccc3)=NN(c3ccccc3)CC12 (stereo not given) inactive
